Reference for the values: patent EP1438962A1

Test system: CYP 3A4
test protocol: Metabolic reaction in pooled human liver microsome with or without the CYP 3A4 inhibitor ketoconazole
Assay type: in vitro ADME
experimental conditions: 1 µmol/L test compound, 37°C, after 60 minutes, ketoconazole 1 µmol/L
This listing pairs compounds with measured Residual rate (%) Ketoconazole (+).
Respond with the bare value in %.

Use these answered entries as a reference point.
CCCCN1C(=O)[C@@H]([C@H](O)C2CCCCC2)NC(=O)C12CCN(Cc1c(C)nn(-c3ccc(C(=O)NC)cc3)c1C)CC2	114.4
CCCCN1C(=O)C(CC(C)C)NC(=O)C12CCN(Cc1c(C)nn(-c3ccccc3)c1C)CC2 (stereo not shown)	89.1
CCCCN1C(=O)[C@H](CC2CCCCC2)NC(=O)C12CCN(Cc1ccc(Oc3ccc(C(=O)O)cc3)cc1)CC2	104.0

Alright, here's another compound for you.
Q: Request: Residual rate (%) Ketoconazole (+), test system CYP 3A4, entry `CCCCN1C(=O)[C@@H]([C@H](O)C2CCCCC2)NC(=O)C12CCN(Cc1ccc(Oc3ccc(C(=O)O)cc3)cc1)CC2`
Result: 95.3
